# Tested on: PEG-3
# Assay info: Peg3 promoter luciferase inhibitors, potency, dose response, cell-based, HeLa, CREF/GAPDH counter-screen panel (AID 624167)
# Cond: HeLa PEG-Prom luciferase reporter, overnight, CREF/GAPDH counter-screens, run 1, dose range 1, individual replicate IC50 per panel
pIC50: −log10 of the molar value.
Given measured pIC50, output true if it is greater than or equal to 5 and false if not.

[Q] Does the reported pIC50 for NC(N)=N/N=C/c1ccc(Cl)cc1Cl fall at or above the 5 mark?
[A] false

[Q] Does the reported pIC50 for Cc1[nH]c2ccc(OC(F)(F)F)cc2c1CCNCc1cccc([N+](=O)[O-])c1 fall at or above the 5 mark?
[A] false

[Q] Does the reported pIC50 for Cc1cc(C(=O)CN2C(=O)c3ccccc3S2(=O)=O)c(C)n1CC1CCCO1 (stereo not drawn) fall at or above the 5 mark?
[A] true

[Q] Does the reported pIC50 for COc1cccc(/C=N/NC(=O)c2ccc(-c3ccccc3)cc2)c1O fall at or above the 5 mark?
[A] true

[Q] Does the reported pIC50 for COc1cccc(/C=N/NC(=O)c2c(-c3ccccc3)noc2C)c1O fall at or above the 5 mark?
[A] false

[Q] Does the reported pIC50 for COc1cc(CNCCN2CCOCC2)ccc1OCc1ccc(Cl)cc1Cl fall at or above the 5 mark?
[A] false

[Q] Does the reported pIC50 for CCCC(=O)NC(c1ccccc1)c1ccc2cccnc2c1O (stereo not drawn) fall at or above the 5 mark?
[A] true

[Q] Does the reported pIC50 for CC(C)(C)c1ccc(Cn2c(=O)cnc3ccccc32)cc1 fall at or above the 5 mark?
[A] true

[Q] Does the reported pIC50 for CCN1CCN(Cc2c(O)ccc3c2O/C(=C\C=C\c2ccccc2)C3=O)CC1 fall at or above the 5 mark?
[A] false

[Q] Does the reported pIC50 for COC(=O)Cc1[nH]n(-c2nc3ccccc3s2)c(=O)c1C(C)=Nc1ccc(C)cc1 fall at or above the 5 mark?
[A] true

[Q] Does the reported pIC50 for CC(=O)NC(c1ccc(N(C)C)cc1)c1cc(Cl)c2cccnc2c1O (stereo not drawn) fall at or above the 5 mark?
[A] true

[Q] Does the reported pIC50 for CC(=O)NC(c1ccc(C)cc1)c1cc(Cl)c2cccnc2c1O (stereo not drawn) fall at or above the 5 mark?
[A] true

[Q] Does the reported pIC50 for COc1ccc(C2NCCc3c2[nH]c2ccccc32)cc1COc1ccc(F)cc1 (stereo not drawn) fall at or above the 5 mark?
[A] false

[Q] Does the reported pIC50 for COc1ccc(/C=C/C(=O)c2ccc3c(c2)OCCO3)cc1[N+](=O)[O-] fall at or above the 5 mark?
[A] false

[Q] Does the reported pIC50 for COCc1ccc(CN2CCC(C(=O)Nc3cccc(-c4cccc(Cl)c4)c3)CC2)o1 fall at or above the 5 mark?
[A] false

[Q] Does the reported pIC50 for Cc1ccc(S(=O)(=O)CCSC(=N)N)cc1 fall at or above the 5 mark?
[A] false

[Q] Does the reported pIC50 for COc1ccc(C(=O)/C=C/Nc2ccccn2)cc1 fall at or above the 5 mark?
[A] true

[Q] Does the reported pIC50 for O=C(c1ccc(Cl)cc1)N1CCCCC(Sc2nnc(-c3ccc4c(c3)OCO4)o2)C1=O (stereo not drawn) fall at or above the 5 mark?
[A] true

[Q] Does the reported pIC50 for CCOc1ccc(NC(=O)Nc2cccc(C(=O)O)c2)cc1 fall at or above the 5 mark?
[A] true

[Q] Does the reported pIC50 for Cc1cccc(/C=N/Nc2ccc3ccccc3n2)c1 fall at or above the 5 mark?
[A] true

[Q] Does the reported pIC50 for Cc1ccc(N(Cc2cc(=O)[nH]c3ccccc23)C(=O)CCl)c(C)c1 fall at or above the 5 mark?
[A] false
